Biological target: T1, human CCR8 (human, UniProt P51685 1-355)
T1 construct: whole, on cells; In the β-arrestin assay CCR8 is fused to the ProLink (PK) tag; also called hCCR8; CHO-K1-human CCR8
T1 sequence (P51685 whole entry, the tested form may be a part): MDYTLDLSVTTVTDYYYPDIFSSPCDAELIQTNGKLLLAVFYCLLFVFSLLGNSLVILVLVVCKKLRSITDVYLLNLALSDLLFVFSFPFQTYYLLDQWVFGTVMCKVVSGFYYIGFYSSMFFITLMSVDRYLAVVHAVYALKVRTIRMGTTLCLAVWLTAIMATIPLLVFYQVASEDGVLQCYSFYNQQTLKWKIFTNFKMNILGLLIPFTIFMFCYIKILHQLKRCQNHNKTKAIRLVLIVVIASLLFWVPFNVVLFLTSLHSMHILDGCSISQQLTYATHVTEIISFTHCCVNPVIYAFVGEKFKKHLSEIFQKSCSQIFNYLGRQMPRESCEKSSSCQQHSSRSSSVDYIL
Assay: FACS on HEK293-human CCR8 cells
Procedure: The binding affinities of purified antibodies were determined on human CCR8 and cynomolgus CCR8 over-expressing cells. […] Data was plotted as the logarithm of antibody concentration versus mean fluorescence signals. EC₅₀ values were calculated in GraphPad Prism 8 (GraphPad Software) using a log(agonist) vs. response-Variable slope (4 parameters) curve fit. […]
pEC50: −log10 of the molar value.
The reader will find reported pEC50 values listed item by item below.
observed_property: pEC50

234G9C12 (antibody, V domains shown, Murine hybridoma antibody; also called 234G4C12) VH: DVQLQESGPGLVKPSQSLSLTCSVTGYSITSGYYWNWIRQFPGNKLEWMGYTSYDGSNNYNPSFKNRISITRDISKNQFFLKLNSVTTEDTATYYCARQIGLRRGAMDHWGQGTSVTVSS VL: DIQMTQSSSYLSVSLGGRVTITCKASDHINNWLAWYQQKPGNAPRLLISGSTSLRAGVASRFSGSGSGKDYTLTITSLQTEDVATYYCQQYWGIPFTFGGGTKLEIK :: 8.85
273H2G6 (antibody, V domains shown, Murine hybridoma antibody) VH: DVQLQESGPGLVKPSQSLSLTCSVTGYSITSGYYWNWIRQFPGNKLEWMGYISYDGSNNYNPSLKNRISITRDISKNQFFLKLNSVTTEDTATYYCARQVGLRRGAMDYWGQGTSVTVSS VL: DIQMTQSSSYLSVSLGGRVTITCKASDHINNWLAWYQQKPGNAPRLLISGSTSLKAGVASRFSGSGSGKDYTLSITSLQTEDVATYYCQQYWSIPYTFGGGTKLEIK :: 9.83
149F2C10 (antibody, V domains shown, also called 1491F2C0) VH: EVQLVESGGGLVQPKGSLKLSCAASGFTFNTYAMNWVRQAPGKGLEWVARIRSKSNFYATYYADSVKDRFTISRDDSQDMLYLQMNILKTEDTAIYYCVRGRDYGSSYAMDYWGQGTSVTVSS VL: DIVMTQAAPSVPVTPGESVSISCRSSKSLLHSNGNTYLYWFLQRPGQSPQLLIYRMSNLASGVPDRFSGSGSGTAFTLRISRVEAEDVGVYYCMQHLEYPLTFGAGTKLELK :: 9.46
153D4G2 (antibody, V domains shown, Murine hybridoma antibody; also called 153D3G2; 1531D4G2) VH: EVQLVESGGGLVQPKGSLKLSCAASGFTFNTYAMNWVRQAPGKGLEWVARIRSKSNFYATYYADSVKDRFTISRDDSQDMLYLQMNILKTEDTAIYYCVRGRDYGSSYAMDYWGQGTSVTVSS VL: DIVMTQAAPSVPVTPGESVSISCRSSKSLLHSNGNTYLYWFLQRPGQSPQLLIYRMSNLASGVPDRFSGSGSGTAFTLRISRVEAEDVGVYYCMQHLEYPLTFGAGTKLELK :: 9.62
348E2D11 (antibody, V domains shown, Murine hybridoma antibody) VH: QVQLVETGGGLVRPGNSLKLSCVTSGFSFSNYRMHWLRQPPGKRLEWIAVITVKSDNYGANYAESVKGRFTISRDDSKSSVYLQMNRLREEDTATYYCSSLGRVAYWGQGTLVTVSA VL: DIVMTQSQKFMFTSVGDRVSVTCKASQNVDTNVVWYQQKPGQSPKALIYSASSRYSGVPDRFTGSGSGTDFTLTISNVQSEDLAEYFCQQHNSFPLTFGAGTKLELI :: 9.95
